Reference source: patent US20210395239A1

Answer each item with its documented pIC50.
Biological target: hTLR9 (Homo sapiens, UniProt Q9NR96)
Sequence (Q9NR96 26-1032): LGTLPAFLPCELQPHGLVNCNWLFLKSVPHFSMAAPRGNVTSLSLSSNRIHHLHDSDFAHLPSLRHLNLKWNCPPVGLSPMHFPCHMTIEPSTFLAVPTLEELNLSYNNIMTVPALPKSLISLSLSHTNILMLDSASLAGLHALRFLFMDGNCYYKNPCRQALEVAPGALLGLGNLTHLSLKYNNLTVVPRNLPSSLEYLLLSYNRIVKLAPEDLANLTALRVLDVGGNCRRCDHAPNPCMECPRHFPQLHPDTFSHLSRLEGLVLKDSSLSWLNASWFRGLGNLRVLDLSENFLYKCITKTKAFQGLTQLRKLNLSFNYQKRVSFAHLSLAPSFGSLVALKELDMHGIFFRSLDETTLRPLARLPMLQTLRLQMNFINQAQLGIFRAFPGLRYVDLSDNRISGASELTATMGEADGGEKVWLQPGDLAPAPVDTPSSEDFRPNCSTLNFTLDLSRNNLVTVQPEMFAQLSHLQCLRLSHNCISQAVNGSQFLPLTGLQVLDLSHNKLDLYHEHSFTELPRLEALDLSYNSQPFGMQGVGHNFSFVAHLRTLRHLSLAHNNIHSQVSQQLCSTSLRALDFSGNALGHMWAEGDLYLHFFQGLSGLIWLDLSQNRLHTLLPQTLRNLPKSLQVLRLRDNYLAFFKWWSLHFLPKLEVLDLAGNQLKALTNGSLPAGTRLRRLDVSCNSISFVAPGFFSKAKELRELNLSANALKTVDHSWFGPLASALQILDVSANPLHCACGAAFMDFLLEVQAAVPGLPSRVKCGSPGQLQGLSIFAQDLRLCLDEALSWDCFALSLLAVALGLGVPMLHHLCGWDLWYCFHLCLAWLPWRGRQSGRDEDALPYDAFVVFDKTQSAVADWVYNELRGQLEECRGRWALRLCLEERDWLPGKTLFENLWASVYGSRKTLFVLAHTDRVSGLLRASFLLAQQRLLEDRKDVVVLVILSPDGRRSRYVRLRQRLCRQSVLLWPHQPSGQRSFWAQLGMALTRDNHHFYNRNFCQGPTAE
Experiment: HEK293-Blue-hTLR-9 cells assay (SEAP reporter, ODN2006 stimulation)
Type: cell-based
Parameters: host or cells: HEK293 (HEK-Blue hTLR9)
Details: HEK293-Blue-hTLR9 cells, ODN2006, 20 hrs; read-out: HEK/hTLR9 IC50
Give bare numbers, as −log10 of the molar value.

Before answering, review these 5 worked examples.
C[C@@H]1CN(c2cc(=O)n(C)c3ncccc23)C[C@H](CN2CC(c3ccc(N4C[C@H]5NCCO[C@@H]5C4)cc3)C2)O1 [Example 182] : 7.41
C[C@@H]1CN(c2ccc(C#N)c3ncccc23)C[C@H](CN2CCN(c3cccc(NC4CNC4)n3)CC2)O1 [Example 38] : 7.01
C[C@@H]1CN(c2ccc(C#N)c3ncccc23)C[C@H](CN2CCC(c3cccc(N4CCNCC4)c3)C2)O1 (stereo partly drawn) [Example 1] : 6.87
C[C@@H]1CN(c2ccc(C#N)c3nccnc23)C[C@H](CN2CCN(c3nccc(N4C[C@@H](N)[C@H](F)C4)n3)CC2)O1 [Example 119] : 7.03
CO[C@H]1CN(c2cc(C)nc(N3CCN(C[C@H]4CN(c5ccc(C#N)c6nccnc56)C[C@@H](C)O4)CC3)n2)C[C@H]1N [Example 122] : 7.51

Recorded result, [2H]c1ccc2c(N3C[C@H](CN4CCN(c5ccc(N6CC(C)(N)C6)c(C)n5)CC4)O[C@H](C)C3)ccc(C#N)c2n1 [Example 147] , pIC50: 6.74

---

Target: hTLR9 (Homo sapiens)
Assay: HEK293-Blue-hTLR-9 cells assay (SEAP reporter, ODN2006 stimulation)
Assay type: cell-based
Set-up: host or cells: HEK293 (HEK-Blue hTLR9)
Details: HEK293-Blue-hTLR9 cells, ODN2006, 20 hrs; read-out: HEK/hTLR9 IC50
Answer each item with its documented pIC50.
Numbers only, as −log10 of the molar value.

[2H]c1ccc2c(N3C[C@H](CN4CCN(c5nc(C)cc(N6CC(N)C6)n5)CC4)O[C@H](C)C3)ccc(C#N)c2n1 : 7.48
C[C@@H]1CN(c2ccc(C#N)c3ncccc23)C[C@H](CN2CCN(c3ncc(F)c(N4CCNCC4)n3)CC2)O1 : 7.29
C[C@@H]1CN(c2ccc(C#N)c3ncccc23)C[C@H](CN2CCN(c3ccnc(N4CCNCC4)n3)CC2)O1 : 7.44
[2H]c1nc2c(C#N)ccc(N3C[C@H](CN4CCN(c5nc(C)cc(N6CC(N)C6)n5)CC4)O[C@H](C)C3)c2nc1[2H] : 7.51
CO[C@@H]1CN(c2cc(C)nc(N3CCN(C[C@H]4CN(c5ccc(C#N)c6nccnc56)C[C@@H](C)O4)CC3)n2)C[C@H]1N : 7.36

Go through the list and state pIC50 for each entry.
1. C[C@@H]1CN(c2ccc(C#N)c3ncccc23)C[C@H](CN2CCN(c3cccc(C4CNCCO4)c3)CC2)O1 (stereo partly shown)
2. COC1CN(c2nc(C)cc(N3CCN(C[C@H]4CN(c5ccc(C#N)c6ncccc56)C[C@@H](C)O4)CC3)n2)CC1N (single isomer, unassigned)
3. C[C@@H]1CN(c2cc(=O)n(C)c3ncccc23)C[C@H](CN2CC(c3ccc(N4CC5(CN(C)C5)C4)cc3)C2)O1
4. CO[C@H]1CN(c2nc(C)cc(N3CCN(C[C@H]4CN(c5ccc(C#N)c6ncccc56)C[C@@H](C)O4)CC3)n2)C[C@@H]1N (single isomer, unassigned) [Example 69A]
5. C[C@@H]1CN(c2ccc(C#N)c3ncccc23)C[C@H](CN2CCN(c3ccc(CN)cc3)CC2)O1
6. [2H]c1ccc2c(N3C[C@H](CN4CCN(c5ccc(N6CC(C)(N)C6)nc5C)CC4)O[C@H](C)C3)ccc(C#N)c2n1
7. C[C@@H]1CN(c2ccc(C#N)c3ncccc23)C[C@H](CN2CCN(c3cncc(N4CCNCC4)c3)CC2)O1

Solution:
1: 7.04; 2: 7.15; 3: 7.39; 4: 7.27; 5: 6.70; 6: 7.18; 7: 7.29

Go through the list and state pIC50 for each entry.
1. C[C@@H]1CN(c2cc(=O)n(C)c3ncccc23)C[C@H](CN2CC(c3ccc(N4CC(F)[C@H](N)C4)cc3)C2)O1 (stereo in doubt)
2. C[C@@H]1CN(c2ccc(C#N)c3ncccc23)C[C@H](CN2CCC(c3cccc(C4CCNCC4)c3)CC2)O1
3. [2H]c1ccc2c(N3C[C@H](CN4CCN(c5ccc(N6C[C@H]7C[C@@H]6CN7)nc5)CC4)O[C@H](C)C3)ccc(C#N)c2n1
4. C[C@@H]1CN(c2ccc(C#N)c3nccnc23)C[C@H](CN2CCN(c3ccnc(N4CC[C@@H](N)[C@H](F)C4)n3)CC2)O1
5. C[C@@H]1CN(c2cc(=O)n(C)c3ncccc23)C[C@H](CN2CC(c3ccc(N4CC(C)(N)C4)cc3)C2)O1
6. C[C@@H]1CN(c2ccc(C#N)c3nccnc23)C[C@H](CN2CCN(c3nccc(N4CC(N)C4)n3)CC2)O1
7. [2H]c1ccc2c(N3C[C@H](CN4CCN(c5ccc(N6CC7(CNCCO7)C6)nc5)CC4)O[C@H](C)C3)ccc(C#N)c2n1

Solution:
7.07
7.13
6.95
7.01
7.00
7.29
7.00

---

Answer each item with its documented inhibition at 10 min, 10 µM.
Biological target: CYP2D6 (Homo sapiens)
Construct: tissue BD-Gentest 452117; host or cells: human liver microsomes
Sequence (P10635 whole entry): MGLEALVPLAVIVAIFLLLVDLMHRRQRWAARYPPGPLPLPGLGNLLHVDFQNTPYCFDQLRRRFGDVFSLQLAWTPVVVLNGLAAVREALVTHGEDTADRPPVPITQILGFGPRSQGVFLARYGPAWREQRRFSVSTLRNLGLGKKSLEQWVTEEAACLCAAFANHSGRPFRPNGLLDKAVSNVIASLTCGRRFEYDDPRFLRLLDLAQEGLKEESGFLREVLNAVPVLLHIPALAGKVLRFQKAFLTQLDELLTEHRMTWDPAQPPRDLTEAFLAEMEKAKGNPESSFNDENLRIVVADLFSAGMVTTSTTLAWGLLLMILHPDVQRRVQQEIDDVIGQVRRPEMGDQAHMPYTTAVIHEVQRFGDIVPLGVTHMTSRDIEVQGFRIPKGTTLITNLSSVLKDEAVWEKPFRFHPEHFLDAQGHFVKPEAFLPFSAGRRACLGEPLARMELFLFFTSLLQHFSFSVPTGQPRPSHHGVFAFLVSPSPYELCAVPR
Assay: CYP inhibition assay in human liver microsome, CYP2D6
Type: in vitro ADME
Conditions: human, human liver microsomes, probe dextromethorphan 5 μM, substrate dextromethorphan 5 μM, second value of 2C9/2D6/3A4
Numbers only, in %.

Before answering, review these 5 worked examples.
CO[C@H]1CN(c2cc(C)nc(N3CCN(C[C@H]4CN(c5ccc(C#N)c6nccnc56)C[C@@H](C)O4)CC3)n2)C[C@@H]1N [Example 104] : 15
CO[C@@H]1CN(c2ccc(N3CCN(C[C@H]4CN(c5ccc(C#N)n6ncc(F)c56)C[C@@H](C)O4)CC3)cn2)C[C@H]1N [Example 166] : 20
C[C@@H]1CN(c2ccc(C#N)n3ncc(F)c23)C[C@H](CN2CCN(c3ccc(N4C[C@H]5NCCO[C@@H]5C4)nc3)CC2)O1 [Example 168] : 1.5
C[C@@H]1CN(c2ccc(C#N)c3ncccc23)C[C@H](CN2CCN(c3cncc(N4CCNCC4)c3)CC2)O1 [Example 7] : 7.5
Cc1cc(N2CCN(C[C@H]3CN(c4ccc(C#N)c5nccnc45)C[C@@H](C)O3)CC2)nc(N2CC(N)C2)n1 [Example 112] : -2

Go through the list and state inhibition at 10 min, 10 µM for each entry.
1. C[C@@H]1CN(c2ccc(C#N)c3ncccc23)C[C@H](CN2CCN(c3ccc([C@@H]4CNCCO4)cc3)CC2)O1 [Example 19]
2. COC1CNC[C@H]1Nc1cccc(N2CCN(C[C@H]3CN(c4ccc(C#N)c5ncccc45)C[C@@H](C)O3)CC2)n1 (stereo in doubt) [Example 39]
3. C[C@@H]1CN(c2ccc(C#N)c3ncccc23)C[C@H](CN2CCN(c3cc(N4CCN(C)CC4)ncn3)CC2)O1 [Example 21]

Solution:
1: 0.5; 2: -4; 3: 2.5

Go through the list and state inhibition at 10 min, 10 µM for each entry.
1. C[C@@H]1CN(c2ccc(C#N)c3ncccc23)C[C@H](CN2CCN(c3cc(N4CCNCC4)ccn3)CC2)O1 [Example 9]
2. C[C@@H]1CN(c2ccc(C#N)c3ncccc23)C[C@H](CN2CCC(C#N)(c3ccc(N4CCNCC4)cc3)CC2)O1 [Example 11]

Solution:
1. 2
2. 0

---

Biological target: CYP3A4 (Homo sapiens)
Construct: tissue BD-Gentest 452117; host or cells: human liver microsomes
Sequence (P08684 whole entry): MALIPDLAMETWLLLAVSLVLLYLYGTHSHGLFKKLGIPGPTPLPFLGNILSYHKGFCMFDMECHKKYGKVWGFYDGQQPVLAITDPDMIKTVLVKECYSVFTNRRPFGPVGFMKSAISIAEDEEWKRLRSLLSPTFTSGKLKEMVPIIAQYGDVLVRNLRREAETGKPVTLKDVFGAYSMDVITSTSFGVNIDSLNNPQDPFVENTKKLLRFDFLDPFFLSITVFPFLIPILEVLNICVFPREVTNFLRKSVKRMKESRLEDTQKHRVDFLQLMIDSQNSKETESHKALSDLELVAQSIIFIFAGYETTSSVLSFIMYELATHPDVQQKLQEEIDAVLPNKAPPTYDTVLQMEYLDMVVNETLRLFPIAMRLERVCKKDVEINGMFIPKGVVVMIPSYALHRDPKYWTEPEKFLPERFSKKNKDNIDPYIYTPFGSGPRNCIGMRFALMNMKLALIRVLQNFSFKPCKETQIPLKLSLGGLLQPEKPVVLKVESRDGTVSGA
Experiment: CYP inhibition assay in human liver microsome, CYP3A4
Assay type: in vitro ADME
Conditions: human, human liver microsomes, probe midazolam 5 μM, substrate midazolam 5 μM, third value of 2C9/2D6/3A4
readout-name: inhibition at 5 min, 10 µM (%)
Give bare numbers, in %.

Before answering, review these 10 worked examples.
C[C@@H]1CN(c2ccc(C#N)c3ncccc23)C[C@H](CN2CCN(c3cccc(NC4CNC4)n3)CC2)O1 : 20
C[C@@H]1CN(c2ccc(C#N)c3ncccc23)C[C@H](CN2CCC(c3cccc(C4CCNCC4)c3)CC2)O1 : 18
C[C@@H]1CN(c2ccc(C#N)c3ncccc23)C[C@H](CN2CCN(c3ccnc(N4CCN[C@@H](CO)C4)n3)CC2)O1 : -5.5
[2H]c1ccc2c(N3C[C@H](CN4CCN(c5ccc(N6CC(C)(N)C6)nc5)CC4)O[C@H](C)C3)ccc(C#N)c2n1 : 7.5
C[C@@H]1CN(c2ccc(C#N)n3ncc(F)c23)C[C@H](CN2CC(c3ccc(N4CC(C)(N)C4)cc3)C2)O1 : 4.5
[2H]c1ccc2c(N3C[C@H](CN4CCN(c5ccc(N6C[C@@H](N)[C@H](OC)C6)nc5)CC4)O[C@H](C)C3)ccc(C#N)c2n1 : 18
C[C@@H]1CN(c2ccc(C#N)c3ncccc23)C[C@H](CN2CCN(c3nc(N4CCNCC4)ncc3F)CC2)O1 : -5
C[C@@H]1CN(c2ccc(C#N)c3ncccc23)C[C@H](CN2CCN(c3ccc([C@@H]4CNCCO4)cc3)CC2)O1 : 12.5
C[C@@H]1CN(c2ccc(C#N)c3ncccc23)C[C@H](CN2CCN(c3ccnc(N[C@H]4CNC[C@H]4F)n3)CC2)O1 : 4
C[C@@H]1CN(c2ccc(C#N)n3ncc(F)c23)C[C@H](CN2CCN(c3ccc(N[C@H]4CNC[C@H]4F)nc3)CC2)O1 : 44

Go through the list and state inhibition at 5 min, 10 µM for each entry.
1. C[C@@H]1CN(c2ccc(C#N)c3ncccc23)C[C@H](CN2CCN(c3ccnc(N4C[C@H](N)[C@@H](F)C4)n3)CC2)O1
2. C[C@@H]1CN(c2ccc(C#N)c3ncccc23)C[C@H](CN2CCN(c3cncc(N4CCNCC4)c3)CC2)O1
3. C[C@@H]1CN(c2ccc(C#N)c3nccnc23)C[C@H](CN2CCN(c3nccc(N4C[C@@H](N)[C@H](F)C4)n3)CC2)O1

Solution:
44
15.5
23.5
